Tested on: hepatitis C replicon
EXPERIMENTAL PROTOCOL: hepatitis C replicon EC50
Format: cell-based
ASSAY SETUP: Hepatitis C virus; Table 2; hepatitis C replicon; read-out: EC50
pEC50: −log10 of the molar value.
Here, each record is paired with measured pEC50 data.
MEASURED ENDPOINT: pEC50

input_smiles=CC1(S(=O)(=O)NC(=O)[C@@]23C[C@H]2/C=C\CCCCC[C@H](NCc2ccccc2)C(=O)N2C[C@H](Oc4nc5ccccc5s4)C[C@H]2C(=O)N3)CC1 result="7.12 to 8.00"
input_smiles=COc1ccc2c(O[C@@H]3C[C@H]4C(=O)N[C@]5(C(=O)NS(=O)(=O)N(C)C)C[C@H]5/C=C\CCCCC[C@H](Nc5cc(F)cc(C(F)(F)F)c5)C(=O)N4C3)cc(-c3nc(C(C)C)cs3)nc2c1C result="> 8.00"
input_smiles=COc1ccc2c(O[C@@H]3C[C@H]4C(=O)N[C@]5(C(=O)NS(=O)(=O)C6(C)CC6)C[C@H]5/C=C\CCCCC[C@H](Nc5cccc(C)c5)C(=O)N4C3)cc(-c3nc(C(C)C)cs3)nc2c1C result="> 8.00"
input_smiles=CC(C)n1c(O[C@@H]2C[C@H]3C(=O)N[C@]4(C(=O)NS(=O)(=O)N(C)C)C[C@H]4/C=C\CCCCC[C@H](Nc4cc(F)cc(C(F)(F)F)c4)C(=O)N3C2)nc2ccccc21 result="7.12 to 8.00"
input_smiles=CC1(S(=O)(=O)NC(=O)[C@@]23C[C@H]2/C=C\CCCCC[C@H](Nc2cc(Cl)cc(Cl)c2)C(=O)N2C[C@H](Oc4nc5ccccc5s4)C[C@H]2C(=O)N3)CC1 result="7.12 to 8.00"
